Consider the following compounds; for each one, report its viability, T/C.
System: 485368-065-R4-J2-PDC spheroids with HUVEC/MSC, viability;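 also: spheroids exposed to compounds for seven days before readout; 100% = DMSO vehicle control wells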
ASSAY INFO: Anticancer human tumor 485368-065-R4-J2-PDC patient-derived pancreatic carcinoma cell line growth inhibition [TAK]
SETUP CONDITIONS: second compound 3 µM; first compound 0.000316 µM; hits give low values
Report the value in % with no unit label.

Inquiry: Please give measured viability, T/C of the following entry: CC(C)CC(NC(=O)CNC(=O)c1cc(Cl)ccc1Cl)B1OC(=O)CC(CC(=O)O)(C(=O)O)O1 (centres undefined) + CC(C)NCC(C(=O)N1CCN(c2ncnc3c2C(C)CC3O)CC1)c1ccc(Cl)cc1
Reply text: 103

Inquiry: Please give measured viability, T/C of the following entry: CC(C)n1nc(-c2ccc3oc(N)nc3c2)c2c(N)ncnc21 + CC(C)NCC(C(=O)N1CCN(c2ncnc3c2C(C)CC3O)CC1)c1ccc(Cl)cc1
Reply text: 97.8

Inquiry: Please give measured viability, T/C of the following entry: COC1CC2CCC(C)C(O)(O2)C(=O)C(=O)N2CCCCC2C(=O)OC(C(C)CC2CCC(OCCO)C(OC)C2)CC(=O)C(C)C=C(C)C(O)C(OC)C(=O)C(C)CC(C)C=CC=CC=C1C (centres undefined) + CC(C)NCC(C(=O)N1CCN(c2ncnc3c2C(C)CC3O)CC1)c1ccc(Cl)cc1
Reply text: 100

Inquiry: Please give measured viability, T/C of the following entry: CC(C)CC(NC(=O)C(Cc1ccccc1)NC(=O)c1cnccn1)B(O)O (centres undefined) + CC(C)NCC(C(=O)N1CCN(c2ncnc3c2C(C)CC3O)CC1)c1ccc(Cl)cc1
Reply text: 98.5
